Target: Tumor necrosis factor ligand superfamily member 11/11A (Mus musculus, UniProt O35235+O35305)
Sequence (O35235 139-316 limits assumed): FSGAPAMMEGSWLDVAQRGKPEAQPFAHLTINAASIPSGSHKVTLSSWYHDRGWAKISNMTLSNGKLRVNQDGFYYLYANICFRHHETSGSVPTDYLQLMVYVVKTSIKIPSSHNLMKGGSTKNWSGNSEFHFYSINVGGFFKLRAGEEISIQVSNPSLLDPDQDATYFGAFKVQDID
Sequence (O35305 31-625 partner limits assumed): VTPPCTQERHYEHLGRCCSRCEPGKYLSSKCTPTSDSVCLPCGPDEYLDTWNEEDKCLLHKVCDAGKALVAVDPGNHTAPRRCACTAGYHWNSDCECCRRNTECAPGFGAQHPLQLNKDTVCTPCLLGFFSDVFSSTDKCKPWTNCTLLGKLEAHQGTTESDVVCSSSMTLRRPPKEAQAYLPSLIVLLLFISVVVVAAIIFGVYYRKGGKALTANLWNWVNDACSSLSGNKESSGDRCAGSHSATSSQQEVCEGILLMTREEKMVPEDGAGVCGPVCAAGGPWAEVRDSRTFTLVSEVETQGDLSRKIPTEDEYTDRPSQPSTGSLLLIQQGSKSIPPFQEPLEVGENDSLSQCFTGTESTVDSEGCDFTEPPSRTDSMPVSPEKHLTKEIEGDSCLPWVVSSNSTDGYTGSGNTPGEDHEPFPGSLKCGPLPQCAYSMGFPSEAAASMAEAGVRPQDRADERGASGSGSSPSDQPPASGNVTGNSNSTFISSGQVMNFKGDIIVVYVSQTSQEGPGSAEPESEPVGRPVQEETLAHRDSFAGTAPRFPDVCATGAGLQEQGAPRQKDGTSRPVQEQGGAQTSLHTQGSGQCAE
Assay: Inhibition of RANKL-RANK protein-protein interaction in C57/BL6 mouse bone marrow macrophage assessed as suppression of M-CSF/mRANKL-induced osteoclast differentiation by measuring decrease in multinucleated TRAP+ cells supplemented with fresh medium containing compounds every 2 days for 5 to 6 days by TRAP staining-based microscopic analysis
OBSERVATION_TYPE: IC50 (µM)

INSERT INTO assay_data (compound, readout_units, value_measured) VALUES
  ('Cc1cccc(C)c1NC(=O)C(Cc1c[nH]c2ccccc12)NC(=O)OCc1ccccc1 (racemic)', 'µM', 6.6);

====

Biological target: Tumor necrosis factor ligand superfamily member 11/11A (Mus musculus) (UniProt O35235+O35305)
Sequence (O35235 139-316 limits assumed): as the sequence (O35235 139-316 limits assumed) above
Sequence (O35305 31-625 partner limits assumed): as the sequence (O35305 31-625 partner limits assumed) above
Test: Inhibition of RANKL-RANK protein-protein interaction in C57/BL6 mouse bone marrow macrophage assessed as suppression of M-CSF/mRANKL-induced osteoclastogenesis by measuring reduction in TRAP activity at 5 uM measured after 3 days by colorimetric assay relative to control
OBSERVATION_TYPE: inhibition

INSERT INTO assay_data (molecule, observation_type, value_measured) VALUES
  ('Cc1cccc(C)c1NC(=O)C(Cc1c[nH]c2ccccc12)NC(=O)CCc1cccc(F)c1 (racemic)', 'inhibition', '56.8%'),
  ('Cc1cccc(C)c1NC(=O)C(Cc1c[nH]c2ccccc12)NCCCCc1ccccc1 (racemic)', 'inhibition', '83.3%'),
  ('Cc1cccc(C)c1NCC(Cc1c[nH]c2ccccc12)NC(=O)CCc1ccccc1 (centres undefined)', 'inhibition', '23.1%'),
  ('CN(C)c1ccc(NC(=O)C(Cc2c[nH]c3ccccc23)NC(=O)CCc2ccccc2)cc1 (racemic)', 'inhibition', '70.6%'),
  ('O=C(CCc1ccccc1)NC(Cc1c[nH]c2ccccc12)C(=O)Nc1ccc(C(F)(F)F)cc1 (racemic)', 'inhibition', '72%'),
  ('Cc1ccccc1NC(=O)C(Cc1c[nH]c2ccccc12)NC(=O)CCc1ccccc1 (centres undefined)', 'inhibition', '74.2%'),
  ('Cc1cccc(C)c1NC(=O)C(Cc1c[nH]c2ccccc12)NC(=O)CCc1nccs1 (racemic)', 'inhibition', '86.3%'),
  ('CS(=O)(=O)c1ccc(NC(=O)C(Cc2c[nH]c3ccccc23)NC(=O)CCc2ccccc2)cc1 (racemic)', 'inhibition', '69.9%'),
  ('Cc1cccc(C)c1NC(=O)C(Cc1c[nH]c2ccccc12)NC(=O)CCC1CCCC1 (racemic)', 'inhibition', '14%'),
  ('Cc1cccc(C)c1NC(=O)C(Cc1c[nH]c2ccccc12)NCCCCCc1ccccc1 (racemic)', 'inhibition', '87.2%'),
  ('Cc1cccc(C)c1NC(=O)C(Cc1c[nH]c2ccccc12)NC(=O)CCc1ccc(Cl)cc1 (racemic)', 'inhibition', '89%'),
  ('Cc1cccc(C)c1NC(=O)C(Cc1c[nH]c2ccccc12)NC(=O)CCc1ccsc1 (racemic)', 'inhibition', '52.2%'),
  ('Cc1cccc(C)c1NC(=O)C(Cc1c[nH]c2ccccc12)NC(=O)CCc1ccncc1 (racemic)', 'inhibition', '41.4%');

====

Target: Tumor necrosis factor ligand superfamily member 11 (Homo sapiens)
Sequence (O14788 140-317 limits assumed): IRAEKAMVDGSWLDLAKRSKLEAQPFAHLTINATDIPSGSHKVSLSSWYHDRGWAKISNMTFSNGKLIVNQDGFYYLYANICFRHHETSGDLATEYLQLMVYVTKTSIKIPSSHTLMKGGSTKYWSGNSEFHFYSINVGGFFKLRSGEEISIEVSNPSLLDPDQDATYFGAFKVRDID
pKd: −log10 of the molar value. Bridge positions count the residues as written; N and C are the ends. Peptide text beside a SMILES is read from it.
Decide using pKd: a value greater than or equal to 5 is MET, a smaller one is NOT MET.

INSERT INTO results (molecule, qualitative_label) VALUES
  ('Cc1cccc(C)c1NC(=O)C(Cc1c[nH]c2ccccc12)NCCCc1ccccc1 (racemic)', 'MET'),
  ('N=C(N)NCCC[C@H](NC(=O)[C@H](CCCNC(=N)N)NC(=O)[C@H](Cc1ccc(O)cc1)NC(=O)[C@@H]1CSSC[C@H](NC(=O)[C@@H](N)Cc2ccc(O)cc2)C(=O)N[C@@H](Cc2c[nH]c3ccccc23)C(=O)N[C@@H](CC(N)=O)C(=O)N[C@@H](CO)C(=O)N[C@@H](CC(=O)O)C(=O)N[C@@H](CS)C(=O)N[C@@H](CCC(=O)O)C(=O)N[C@@H](CS)C(=O)N1)C(=O)O (H-YCWNSDCECCYRR-OH; disulfide 2-10)', 'NOT MET'),
  ('Cc1cccc(C)c1NC(=O)C(Cc1c[nH]c2cc(F)ccc12)NC(=O)CCc1ccccc1 (racemic)', 'MET'),
  ('Cc1cccc(C)c1NC(=O)C(Cc1c[nH]c2ccccc12)NC(=O)CCc1ccccc1 (racemic)', 'MET'),
  ('CC[C@H](C)[C@H](NC(=O)[C@H](CC(C)C)NC(=O)[C@H](Cc1ccc(O)cc1)NC(=O)[C@@H]1CSSC[C@H](NC(=O)[C@@H](N)Cc2ccc(O)cc2)C(=O)N[C@@H](CCC(=O)O)C(=O)N[C@@H]([C@@H](C)CC)C(=O)N[C@@H](CCC(=O)O)C(=O)N[C@@H](Cc2ccccc2)C(=O)N1)C(=O)N[C@@H](CCCNC(=N)N)C(=O)O (H-YCEIEFCYLIR-OH; disulfide 2-7)', 'NOT MET'),
  ('Cc1cccc(C)c1NC(=O)C(Cc1c[nH]c2ccccc12)NC(=O)CCc1ccc(Cl)cc1 (racemic)', 'MET');

====

Molecular target: Tumor necrosis factor ligand superfamily member 11/11A (Mus musculus) (UniProt O35235+O35305)
Experiment: Inhibition of RANKL-RANK protein-protein interaction in C57/BL6 mouse bone marrow macrophage assessed as suppression of M-CSF/mRANKL-induced osteoclastogenesis by measuring reduction in TRAP activity at 5 uM measured after 3 days by colorimetric assay relative to control
OBSERVATION_TYPE: inhibition (%)

INSERT INTO measurements (compound, observation_type, value_measured) VALUES
  ('Cc1cccc(C)c1NC(=O)C(Cc1c[nH]c2ccccc12)NC(=O)CCC1CCCCC1 (racemic)', 'inhibition', 35.4),
  ('Cc1cccc(C)c1NC(=O)C(Cc1c[nH]c2ccccc12)NC(=O)CCC1CC1 (racemic)', 'inhibition', 57.4),
  ('O=C(CCc1ccccc1)NC(Cc1c[nH]c2ccccc12)C(=O)Nc1ccc(F)cc1 (racemic)', 'inhibition', 70.3),
  ('Cc1cccc(C)c1NC(=O)C(Cc1c[nH]c2ccccc12)NCCCc1ccccc1 (racemic)', 'inhibition', 92.9),
  ('O=C(CCc1ccccc1)NC(Cc1c[nH]c2ccccc12)C(=O)Nc1ccccc1 (racemic)', 'inhibition', 55.3),
  ('Cc1cccc(C)c1NC(=O)C(Cc1c[nH]c2ccccc12)NC(=O)CCc1ccc(F)cc1 (racemic)', 'inhibition', 33.6),
  ('Cc1cccc(C)c1NC(=O)C(Cc1c[nH]c2ccccc12)NC(=O)CCCCc1ccccc1 (racemic)', 'inhibition', 82);

====

Biological target: Tumor necrosis factor (Homo sapiens)
Sequence (P01375 whole entry): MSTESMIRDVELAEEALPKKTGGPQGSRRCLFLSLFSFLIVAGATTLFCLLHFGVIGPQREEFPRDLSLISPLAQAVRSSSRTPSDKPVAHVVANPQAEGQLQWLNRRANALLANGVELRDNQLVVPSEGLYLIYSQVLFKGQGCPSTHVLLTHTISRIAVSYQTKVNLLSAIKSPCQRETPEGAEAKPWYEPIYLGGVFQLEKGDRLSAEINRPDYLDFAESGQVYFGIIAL
pKd: −log10 of the molar value.
OBSERVATION_TYPE: pKd

INSERT INTO assay_data (compound, experimental_system, value_measured) VALUES
  ('Cc1cccc(C)c1NC(=O)C(Cc1c[nH]c2ccccc12)NCCCc1ccccc1 (racemic)', 'Tumor necrosis factor (Homo sapiens)', 4.03);

====

Experiment: Cytotoxicity against M-CSF-stimulated C57/BL6 mouse bone marrow macrophages assessed as cell viability at 10 uM measured after 2 days by MTT assay (reference value: 100%)
Format: cell-based
Settings: M-CSF-stimulated bone marrow macrophages (BMDM), read-out: Activity
OBSERVATION_TYPE: viability at 48 h, 10 µM (%)

INSERT INTO results (compound, readout_units, value_measured) VALUES
  ('Cc1cccc(C)c1NC(=O)C(Cc1c[nH]c2ccccc12)NC(=O)CCc1ccc(Cl)cc1 (racemic)', '%', 102),
  ('Cc1cccc(C)c1NC(=O)C(Cc1c[nH]c2cc(F)ccc12)NC(=O)CCc1ccccc1 (racemic)', '%', 103),
  ('Cc1cccc(C)c1NC(=O)C(Cc1c[nH]c2ccccc12)NCCCc1ccccc1 (racemic)', '%', 110),
  ('Cc1cccc(C)c1NC(=O)C(Cc1c[nH]c2ccccc12)NC(=O)CCc1ccccc1 (racemic)', '%', 110);

====

Biological target: Tumor necrosis factor ligand superfamily member 11/11A (Mus musculus) (UniProt O35235+O35305)
Assay: Inhibition of RANKL-RANK protein-protein interaction in C57/BL6 mouse bone marrow macrophage assessed as suppression of M-CSF/mRANKL-induced osteoclastogenesis by measuring reduction in TRAP activity at 5 uM measured after 3 days by colorimetric assay relative to control
Catalogue of compounds with associated inhibition
OBSERVATION_TYPE: inhibition

INSERT INTO results (compound, value_measured) VALUES
  ('COc1ccc(CCC(=O)NC(Cc2c[nH]c3ccccc23)C(=O)Nc2c(C)cccc2C)cc1 (racemic)', '16.9%'),
  ('O=C(CCc1ccccc1)NC(Cc1c[nH]c2ccccc12)C(=O)Nc1ccc(N2CCOCC2)cc1 (racemic)', '64.8%'),
  ('COc1ccc(NC(=O)C(Cc2c[nH]c3ccccc23)NC(=O)CCc2ccccc2)cc1 (racemic)', '59%'),
  ('Cc1ccc(NC(=O)C(Cc2c[nH]c3ccccc23)NC(=O)CCc2ccccc2)cc1 (racemic)', '69.9%'),
  ('Cc1cccc(C)c1NC(=O)C(Cc1c[nH]c2ccccc12)NCCc1ccccc1 (racemic)', '76.5%');
